- tested.system: CD47 proprietary (human, UniProt Q08722 19-134, limits assumed)
- Sequence (Q08722 19-134 limits assumed): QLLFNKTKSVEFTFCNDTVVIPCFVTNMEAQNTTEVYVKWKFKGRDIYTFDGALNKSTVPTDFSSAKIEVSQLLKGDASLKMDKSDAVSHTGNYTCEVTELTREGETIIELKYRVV
- method: ELISA on CD47 proprietary, 450 nm
Each entry below carries its reported OD units, binding on CD47 proprietary.
Report as a plain number; the unit OD units is understood.

• BCD106-02_L.Alecto.VHHSel2_MP1_G5_37 (VHH, Llama anti-CD47 VHH tested as E. coli culture supernatant; not shown: myc and His6 tags at the C-terminus of the VHH (pET-22)) VHH: AVQLVDSGGGLVQPGGSLRLSCAASRSIFSINAMNWYRQAPGNRREWVAQITDEGITNYVDSVKGRFTITRDNAKNTMYLQMNSLKPEDTAVYYCNAFVITTTSEIYWGQGTTVTVSS = 0.426

Next:
Lookup: # lookup: OD units, binding on CD47 proprietary of BCD106-02_L.Alecto.VHHSel2_MP1_F10_76 (VHH, Llama anti-CD47 VHH tested as E. coli culture supernatant; not shown: myc and His6 tags at the C-terminus of the VHH (pET-22)) VHH: DVQLVESGGGLVQPGGSLRLSCAASRNIFSINAMNWYRQAPGKRREWVAQITSEGITNYVDSVKGRFTITRDNAKNTMYLQMNSLKPEDTAVYYCNAFVITASSEVYWGQGTTVTVSS
Found: 0.312

These entries and their values trace back to patent US20200270345A1.
